# assay-details: Pharmacokinetic studies of ERX-315
# Type: in vivo, mice
# measurement-conditions: mouse, tumor, 10 mg/kg; 2 hr after last dose, MCF7 xenograft, oral 5 days/week for 10 days; read-out: Tumor
reported-property: concentration at 2 h (ng/mL)
Expressed in ng/mL, but write only the number.

What value of concentration at 2 h has been reported for the following molecule? CC(C)COc1cc(C(=O)Nc2ccc(C(=O)N[C@H]3CC[C@H](C(=O)Nc4cnc5ccccc5c4)CC3)cc2OCC(C)C)ccc1NC(=O)c1ccc(F)c(OCCO)c1
1430

* * *

# assay-details: Pharmacokinetic studies of ERX-315
# Format: in vivo, mice
# measurement-conditions: mouse, tumor, 10 mg/kg; 16 hr after last dose, MCF7 xenograft, oral 5 days/week for 10 days; read-out: Tumor
reported-property: concentration at 16 h (µg/mL)
Response body: numeric value in µg/mL, unit text excluded.

Which value of concentration at 16 h has been reported for CC(C)COc1cc(C(=O)Nc2ccc(C(=O)N[C@H]3CC[C@H](C(=O)Nc4cnc5ccccc5c4)CC3)cc2OCC(C)C)ccc1NC(=O)c1ccc(F)c(OCCO)c1 in the records?
0.187
